Where do the numbers come from? From patent US20180303807A1.

Answer each item with its documented IC50.
# targetUnderTest: AR (Homo sapiens)
# Construct: expressed in transfected cells; host or cells: CV1 cells
# Sequence (P10275 whole entry): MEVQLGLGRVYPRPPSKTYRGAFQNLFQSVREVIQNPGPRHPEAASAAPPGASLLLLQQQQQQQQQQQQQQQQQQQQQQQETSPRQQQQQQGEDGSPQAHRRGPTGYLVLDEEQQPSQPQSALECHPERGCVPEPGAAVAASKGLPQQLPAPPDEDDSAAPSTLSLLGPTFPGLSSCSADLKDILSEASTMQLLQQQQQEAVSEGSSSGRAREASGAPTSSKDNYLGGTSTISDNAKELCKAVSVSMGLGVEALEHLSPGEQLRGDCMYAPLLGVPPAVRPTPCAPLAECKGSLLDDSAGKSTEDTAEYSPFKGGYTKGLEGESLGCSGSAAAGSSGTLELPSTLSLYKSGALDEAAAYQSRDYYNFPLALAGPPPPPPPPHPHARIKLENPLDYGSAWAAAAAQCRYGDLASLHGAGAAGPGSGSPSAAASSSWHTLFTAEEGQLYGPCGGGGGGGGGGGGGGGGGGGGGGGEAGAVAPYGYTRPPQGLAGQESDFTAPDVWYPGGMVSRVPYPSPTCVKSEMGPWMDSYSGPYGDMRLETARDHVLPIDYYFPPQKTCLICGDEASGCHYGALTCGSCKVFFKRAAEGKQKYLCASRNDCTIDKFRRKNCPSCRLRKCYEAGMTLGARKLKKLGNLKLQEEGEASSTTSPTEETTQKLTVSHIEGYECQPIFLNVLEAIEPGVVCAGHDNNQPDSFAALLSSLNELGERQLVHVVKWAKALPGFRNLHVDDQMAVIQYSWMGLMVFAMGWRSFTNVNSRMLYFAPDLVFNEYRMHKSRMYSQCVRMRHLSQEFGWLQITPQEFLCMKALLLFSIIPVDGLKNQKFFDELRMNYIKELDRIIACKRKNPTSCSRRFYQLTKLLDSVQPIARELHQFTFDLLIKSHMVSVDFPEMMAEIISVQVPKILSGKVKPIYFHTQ
# testProtocol: Reporter gene assay, AR transcriptional (MMTV-Luc) in CV1 cells
# Format: cell-based
# conditionInfo: pcDNA-AR + MMTV-Luc, 0.1 nM R1881 plus test compound, 24 hrs, read-out: B1 = AR transcriptional IC50 (μM) in CV1 cells
One number for each entry, in µM.

Examples from the recorded data:
[
  {
    "molecule": "CC1(C)CC(=O)C2=C(C1)Nc1ccc3ncccc3c1C2c1ccc(C#N)c(F)c1 (centres unmarked)",
    "targetUnderTest": "AR (Homo sapiens)",
    "unitName": "µM",
    "IC50": 7.7
  },
  {
    "molecule": "O=C1CCC2=C1C(c1ccc([N+](=O)[O-])cc1)c1c(ccc3ncccc13)N2 (centres unmarked)",
    "targetUnderTest": "AR (Homo sapiens)",
    "unitName": "µM",
    "IC50": 9.9
  },
  {
    "molecule": "CC1(C)CC(=O)C2=C(C1)Nc1ccc3ncccc3c1C2c1ccc(Cl)s1 (centres unmarked)",
    "targetUnderTest": "AR (Homo sapiens)",
    "unitName": "µM",
    "IC50": 1.9
  },
  {
    "molecule": "CC1(C)CC(=O)C2=C(C1)Nc1ccc3nccnc3c1C2c1ccc(Br)s1 (racemic)",
    "targetUnderTest": "AR (Homo sapiens)",
    "unitName": "µM",
    "IC50": 0.5
  }
]

# per-item lookup of IC50; items listed below
1. CC1(C)CC(=O)C2=C(C1)Nc1ccc3ncccc3c1C2c1cc(C(F)(F)F)cc(C(F)(F)F)c1 (centres unmarked)
2. Cc1nc2ccc3c(c2nc1C)C(c1ccc(F)c(F)c1)C1=C(CC(C)(C)CC1=O)N3 (racemic)
3. Cn1ncc2ccc3c(c21)C(c1ccc(Cl)s1)C1=C(CC(C)(C)CC1=O)N3 (centres unmarked)

1. 6
2. 55
3. 4.7
